# ASSAY_NAME: Drug level in rat brain at 1 mg/kg, iv after 2 hrs
# Assay type: ADME, organism-based
# Design: dose 1 mg/kg, route intravenous
# CONDITION_SET: read-out: Drug uptake
ENDPOINT_NAME: concentration at 2 h

> print(dat)
                           substance.smiles   value
1  Nc1n[nH]c2nc(N3CCCCC3)c3c(c12)CCN(Cc1ccccc1)C3  140 nM

====

# SYSTEM_NAME: Bombesin receptor subtype-3 (Rattus norvegicus)
# Sequence (Q8K418 whole entry): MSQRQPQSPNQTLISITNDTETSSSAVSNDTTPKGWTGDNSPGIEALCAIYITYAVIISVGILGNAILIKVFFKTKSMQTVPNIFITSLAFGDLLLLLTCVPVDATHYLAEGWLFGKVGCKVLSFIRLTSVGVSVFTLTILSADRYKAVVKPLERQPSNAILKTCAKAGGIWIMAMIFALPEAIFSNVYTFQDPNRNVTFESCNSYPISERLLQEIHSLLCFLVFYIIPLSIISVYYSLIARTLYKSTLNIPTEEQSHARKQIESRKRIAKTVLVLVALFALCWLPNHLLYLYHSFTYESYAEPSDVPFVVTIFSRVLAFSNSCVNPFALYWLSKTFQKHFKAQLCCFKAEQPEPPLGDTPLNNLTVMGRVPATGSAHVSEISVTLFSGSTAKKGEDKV
# ASSAY_NAME: Agonist activity at rat BRS3 expressed in HEK293AEQ cells after 10 mins by aequorin bioluminescence assay
ENDPOINT_NAME: log10 EC50 (log10 of the value in nM)

> print(dat)
                           substance.smiles                               system.name  value
1  Nc1n[nH]c2nc(N3CCCCCC3)c3c(c12)CCN(Cc1ccccc1)C3  Bombesin receptor subtype-3 (Rattus norvegicus)   3.16
2  CC(C)(C)CC(=O)Nc1n[nH]c2nc(N3CCCCC3)c3c(c12)CCN(Cc1ccccc1)C3  Bombesin receptor subtype-3 (Rattus norvegicus)   2.64
3  CC(C)(C)CNc1n[nH]c2nc(N3CCCCC3)c3c(c12)CCN(Cc1ccccc1)C3  Bombesin receptor subtype-3 (Rattus norvegicus)   2.83
4  Nc1n[nH]c2nc(Nc3ccccc3)c3c(c12)CCN(Cc1ccccc1)C3  Bombesin receptor subtype-3 (Rattus norvegicus)   4.00
5  Nc1n[nH]c2nc(N3CCCCC3)c3c(c12)CCN(Cc1ccccn1)C3  Bombesin receptor subtype-3 (Rattus norvegicus)   2.54
6  CC(C)CN1CCc2c(c(N3CCCCC3)nc3[nH]nc(N)c23)C1  Bombesin receptor subtype-3 (Rattus norvegicus)   4.00
7  Nc1n[nH]c2nc(N3CCOCC3)c3c(c12)CCN(Cc1ccccc1)C3  Bombesin receptor subtype-3 (Rattus norvegicus)   3.55
8  Nc1n[nH]c2nc(N3CCCC3)c3c(c12)CCN(Cc1ccccc1)C3  Bombesin receptor subtype-3 (Rattus norvegicus)   2.98
9  CC(=O)n1nc(N)c2c3c(c(N4CCCCC4)nc21)CN(Cc1ccccc1)CC3  Bombesin receptor subtype-3 (Rattus norvegicus)   2.88
